B1: tRNA (parent)
chain: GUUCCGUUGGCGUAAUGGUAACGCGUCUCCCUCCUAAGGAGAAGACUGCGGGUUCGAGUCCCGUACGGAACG

Variants of: B1
Experiment: yeast fitness relative to wild type (ratio to wild type); higher = fitter; tRNA-Arg(CCU), competitive growth, 37 C, YPD
Fewer inactive variants are shown than the library holds.
List of yeast fitness values.

Looking for the measured yeast fitness of G6A G10C , can you help?
0.725

Would you kindly share the measured yeast fitness for C4U C33A A42G ?
≤ 0.5

Fill blank: measured yeast fitness of the variant A40C A57C C61A is ____.
≤ 0.5

Sample A20G A57C C62U — what was its yeast fitness?
≤ 0.5

GET /values?readout=yeast fitness&item= C11G A14U G48C
0.58

***
What value of measured yeast fitness is listed for U19A A40G C60U U64C ?
0.705

Field request: yeast fitness | item: U3C C46A G50A
0.731
